Assay System: STK33 (human) (UniProt Q9BYT3)
Sequence (Q9BYT3 whole entry, looked up): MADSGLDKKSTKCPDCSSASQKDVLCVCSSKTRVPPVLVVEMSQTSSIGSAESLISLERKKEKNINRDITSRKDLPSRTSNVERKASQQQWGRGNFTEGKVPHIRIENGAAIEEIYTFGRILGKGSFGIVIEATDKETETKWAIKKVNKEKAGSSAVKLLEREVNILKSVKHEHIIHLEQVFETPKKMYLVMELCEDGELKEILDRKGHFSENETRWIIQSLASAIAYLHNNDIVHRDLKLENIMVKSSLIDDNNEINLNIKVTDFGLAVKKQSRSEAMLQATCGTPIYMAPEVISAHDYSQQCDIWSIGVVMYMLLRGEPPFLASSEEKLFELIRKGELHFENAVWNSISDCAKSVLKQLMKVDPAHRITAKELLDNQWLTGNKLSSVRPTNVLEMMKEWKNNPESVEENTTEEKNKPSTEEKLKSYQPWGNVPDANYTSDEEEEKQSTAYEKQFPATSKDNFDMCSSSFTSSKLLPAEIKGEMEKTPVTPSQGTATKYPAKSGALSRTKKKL
Experiment Description: radiometric filter-binding kinase assay
Measurement Context: compound 10.0 µM
Measure: residual activity (%)

Below, 2 compounds whose answers are already recorded.
{"columns": ["Compound", "residual activity [%]"],
 "data": [
  ["CC(C)C[C@H](NC(=O)CNC(=O)c1cc(Cl)ccc1Cl)B1OC(=O)CC(CC(=O)O)(C(=O)O)O1 (some centres undefined)", 98],
  ["c1ccc2c(-c3cnn4cc(-c5ccc(N6CCNCC6)cc5)cnc34)ccnc2c1", 11]
]}

I = COC(=O)/C=C/C(=O)OC
II = Cc1ccc(-c2ccc3c(ccc4sc5c(c43)NC[C@@H](C)NC5=O)n2)cn1
Param metric = residual activity; output whichever of I , II has the minimum value. Could you answer with the label of the item you picked? II
(II: 38%, I: 93%)

###

Assay System: NEK2 (human) (UniProt P51955)
Sequence (P51955 whole entry, looked up): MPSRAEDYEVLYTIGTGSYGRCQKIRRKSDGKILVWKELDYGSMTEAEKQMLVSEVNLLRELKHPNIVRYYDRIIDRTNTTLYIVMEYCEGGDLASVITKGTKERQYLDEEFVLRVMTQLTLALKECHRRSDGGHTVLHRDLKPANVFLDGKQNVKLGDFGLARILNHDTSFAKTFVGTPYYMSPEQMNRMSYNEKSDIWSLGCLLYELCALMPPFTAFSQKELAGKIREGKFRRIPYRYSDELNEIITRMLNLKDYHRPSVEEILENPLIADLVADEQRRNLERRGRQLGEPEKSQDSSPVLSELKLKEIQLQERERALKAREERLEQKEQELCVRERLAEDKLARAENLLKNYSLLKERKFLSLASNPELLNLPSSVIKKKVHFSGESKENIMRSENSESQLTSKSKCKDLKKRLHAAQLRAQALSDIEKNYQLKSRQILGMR
Experiment Description: radiometric filter-binding kinase assay
Measurement Context: compound 0.1 µM
Measure: residual activity (%)

Below, 2 molecules whose answers are already recorded.
{"columns": ["Molecule", "Assay System", "residual activity, %"],
 "data": [
  ["NC(=O)Nc1ccc2c(c1)/C(=C/c1cc(-c3cccnc3)c[nH]1)C(=O)N2", "NEK2 (human) (UniProt P51955)", 100],
  ["COc1cc(O)c2c(c1)/C=C/C[C@H](O)[C@H](O)C(=O)/C=C\\C[C@H](C)OC2=O", "NEK2 (human) (UniProt P51955)", 108]
]}

a = COc1ccc(-n2ncc3cnc(Nc4cc(OC)c(OC)c(OCCCN5CCN(C)CC5)c4)nc32)cc1
b = Cc1ccc(-c2ccc3c(ccc4sc5c(c43)NC[C@@H](C)NC5=O)n2)cn1
Param metric = residual activity; output whichever of a , b has the minimum value. Could you answer with the label of the item you picked? a
(a: 22%, b: 108%)

###

Assay System: UniProtKB Q14164
Sequence (Q14164 whole entry, looked up): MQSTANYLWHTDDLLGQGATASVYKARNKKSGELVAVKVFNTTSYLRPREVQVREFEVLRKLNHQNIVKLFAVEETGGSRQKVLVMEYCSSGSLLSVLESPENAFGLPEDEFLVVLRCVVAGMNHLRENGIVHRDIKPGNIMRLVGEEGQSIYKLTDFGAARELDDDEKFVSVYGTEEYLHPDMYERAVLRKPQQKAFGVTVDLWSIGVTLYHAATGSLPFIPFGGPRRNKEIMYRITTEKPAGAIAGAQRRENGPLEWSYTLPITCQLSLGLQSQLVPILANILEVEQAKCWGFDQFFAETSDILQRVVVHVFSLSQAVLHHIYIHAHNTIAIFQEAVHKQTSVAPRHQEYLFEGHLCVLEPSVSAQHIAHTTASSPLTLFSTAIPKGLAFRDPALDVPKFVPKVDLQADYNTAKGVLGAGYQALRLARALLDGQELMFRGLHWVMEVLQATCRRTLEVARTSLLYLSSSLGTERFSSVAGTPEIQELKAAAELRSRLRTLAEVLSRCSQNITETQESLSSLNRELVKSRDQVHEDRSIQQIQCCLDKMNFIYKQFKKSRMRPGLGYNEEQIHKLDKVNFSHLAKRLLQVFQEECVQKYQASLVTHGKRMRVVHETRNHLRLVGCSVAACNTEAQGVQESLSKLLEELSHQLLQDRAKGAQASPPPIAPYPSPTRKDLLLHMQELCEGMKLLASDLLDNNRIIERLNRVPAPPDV
Experiment Description: radiometric filter-binding kinase assay
Measurement Context: compound 1.0 µM
Measure: residual activity (%)

Below, 2 molecules whose answers are already recorded.
{"columns": ["Molecule", "residual activity [%]"],
 "data": [
  ["CCCCCc1ccc(/C=C/[C@H](O)[C@@H](CO)NC)cc1", 95],
  ["N#Cc1c(C2CCNCC2)cc(-c2c(O)cccc2OCC2CC2)nc1N", 87]
]}

a = FC(F)(F)c1ccc(-c2ccc(Oc3cncc4sc(-c5nn[nH]n5)cc34)cc2)cc1
b = O=c1c(O)c(-c2ccc(O)c(O)c2)oc2cc(O)c(O)c(O)c12
Parameter check: reported residual activity is higher for which label, a or b ? Could you answer with the label of the item you picked? a

###

Assay System: CHEK2 (human)
Experiment Description: radiometric filter-binding kinase assay
Measurement Context: compound 10.0 µM
Measure: residual activity (%)

Below, 10 compounds whose answers are already recorded.
{"columns": ["Compound", "Measure", "Unit Of Measurement", "Number"],
 "data": [
  ["FC(F)(F)c1ccc(-c2ccc(Oc3cncc4sc(-c5nn[nH]n5)cc34)cc2)cc1", "residual activity", "%", 37],
  ["Oc1ccc2ccccc2c1SSc1c(O)ccc2ccccc12", "residual activity", "%", 94],
  ["NCC(=O)Nc1ccc(-n2nc(C(F)(F)F)cc2-c2ccc3c(ccc4ccccc43)c2)cc1", "residual activity", "%", 76],
  ["Cc1ccc2c(c1)C(=O)[C@@]1(O)CCN(c3ccccc3)C1=N2", "residual activity", "%", 100],
  ["Oc1ccc(/C=C/c2cc(O)cc(O)c2)cc1", "residual activity", "%", 79],
  ["Cc1nc(-c2ccc(OCC(C)C)c(C#N)c2)sc1C(=O)O", "residual activity", "%", 60],
  ["Cc1ccc(Sc2cnc(Nc3cccc(Br)n3)s2)cc1C(=O)N1CCN(C(=O)CN)CC1", "residual activity", "%", 4],
  ["CCc1cncnc1N1CCN(Cc2nc3cc(C(F)(F)F)ccc3[nH]2)CC1", "residual activity", "%", 72],
  ["NC(=O)c1cc(-c2ccnc(NC3CCCCC3)c2)nc(N2CCNCC2)c1", "residual activity", "%", 88],
  ["CCNc1nc(Nc2cc(F)c(C(=O)N3CCOCC3)cc2OC)ncc1C(F)(F)F", "residual activity", "%", 2]
]}

a = Cc1cccc(Nc2nn(C)c3ncnc(N)c23)c1
b = NC1(c2ccc(-c3nc4ccn5c(=O)[nH]nc5c4cc3-c3ccccc3)cc2)CCC1
Param metric = residual activity; output whichever of a , b has the minimum value. Could you answer with the label of the item you picked? b
(b: 39%, a: 98%)

###

Assay System: NUAK1 (human)
Experiment Description: radiometric filter-binding kinase assay
Measurement Context: compound 0.01 µM
Measure: residual activity (%)

Below, 2 compounds whose answers are already recorded.
{"columns": ["Compound", "Measure", "Unit Of Measurement", "Number"],
 "data": [
  ["COc1cc(O)c2c(c1)[C@H]1OC1C[C@H](O)[C@H](O)C(=O)/C=C\\C[C@H](C)OC2=O (stereo not given in full)", "residual activity", "%", 93],
  ["O=C(Nc1nc2cc(C(F)(F)F)cc(NC3CC3)n2n1)c1cccnc1", "residual activity", "%", 100]
]}

A = CNc1nc(-c2ccc3c(N)n[nH]c3c2)cc(N2C[C@@H](C(=O)NC3CCCCC3)CC[C@H]2C)n1
B = CNC(=O)C1[C@H]2O[C@@](C)([C@@H]1N)n1c3ccccc3c3c4c(c5c6ccccc6n2c5c31)C(=O)NC4 (stereo not given in full)
Parameter check: reported residual activity is higher for which label, A or B ? Could you answer with the label of the item you picked? A

###

Assay System: EIF2AK3 (human)
Experiment Description: radiometric filter-binding kinase assay
Measurement Context: compound 1.0 µM
Measure: residual activity (%)

{"columns": ["Compound Structure", "Assay System", "Unit Of Measurement", "Number"],
 "data": [
  ["Cc1ccc(=O)n(-c2ccccc2)c1", "EIF2AK3 (human)", "%", 106],
  ["Cc1nc(-c2ccc(OCC(C)C)c(C#N)c2)sc1C(=O)O", "EIF2AK3 (human)", "%", 94],
  ["O=C(NOC[C@H](O)CO)c1ccc(F)c(F)c1Nc1ccc(I)cc1Cl", "EIF2AK3 (human)", "%", 96],
  ["CNc1nc(-c2ccc3c(N)n[nH]c3c2)cc(N2C[C@@H](C(=O)NC3CCCCC3)CC[C@H]2C)n1", "EIF2AK3 (human)", "%", 100],
  ["O=C(N[C@@H](COc1ccc2[nH]c(=O)[nH]c2c1)c1ccccc1)c1cccn(Cc2ccc(F)c(F)c2)c1=O", "EIF2AK3 (human)", "%", 104]
]}

###

Assay System: MARK2 (human)
Experiment Description: radiometric filter-binding kinase assay
Measurement Context: compound 1.0 µM
Measure: residual activity (%)

Below, 3 compounds whose answers are already recorded.
{"columns": ["Compound Structure", "Assay System", "residual activity [%]"],
 "data": [
  ["O=C(Nc1ccccc1-c1cn2c(CN3CCNCC3)csc2n1)c1cnc2ccccc2n1", "MARK2 (human)", 106],
  ["C=CC(=O)N1CCC[C@@H](n2nc(-c3ccc(Oc4ccccc4)cc3)c3c(N)ncnc32)C1", "MARK2 (human)", 102],
  ["Cc1ccc(-c2ccc3c(ccc4sc5c(c43)NC[C@@H](C)NC5=O)n2)cn1", "MARK2 (human)", 113]
]}

P = NC(=O)c1c(NC(=O)C2CC2)sc2c1CCCC2
Q = NC(=O)c1cc(-c2ccnc(NC3CCCCC3)c2)nc(N2CCNCC2)c1
Param metric = residual activity; output whichever of P , Q has the minimum value. Could you answer with the label of the item you picked? Q
(Q: 63%, P: 97%)

###

Assay System: UniProtKB Q9BXA7
Sequence (Q9BXA7 whole entry, looked up): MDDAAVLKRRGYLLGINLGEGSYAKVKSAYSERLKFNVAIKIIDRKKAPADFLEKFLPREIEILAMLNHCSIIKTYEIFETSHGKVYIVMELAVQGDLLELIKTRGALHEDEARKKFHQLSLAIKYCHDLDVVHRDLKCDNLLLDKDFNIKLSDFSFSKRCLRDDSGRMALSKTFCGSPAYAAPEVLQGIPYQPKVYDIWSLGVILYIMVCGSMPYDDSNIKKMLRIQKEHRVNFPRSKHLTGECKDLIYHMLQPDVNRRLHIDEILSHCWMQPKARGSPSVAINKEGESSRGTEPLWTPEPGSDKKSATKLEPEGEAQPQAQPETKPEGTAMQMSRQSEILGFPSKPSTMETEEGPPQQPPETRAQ
Experiment Description: radiometric filter-binding kinase assay
Measurement Context: compound 0.1 µM
Measure: residual activity (%)

Below, 3 molecules whose answers are already recorded.
{"columns": ["Molecule", "Measure", "Number"],
 "data": [
  ["O=C(N[C@@H](COc1ccc2[nH]c(=O)[nH]c2c1)c1ccccc1)c1cccn(Cc2ccc(F)c(F)c2)c1=O", "residual activity", 93],
  ["Cc1ccc(-c2ccc3c(ccc4sc5c(c43)NC[C@@H](C)NC5=O)n2)cn1", "residual activity", 97],
  ["C=CC(=O)N1CCC[C@@H](n2nc(-c3ccc(Oc4ccccc4)cc3)c3c(N)ncnc32)C1", "residual activity", 105]
]}

a = CCn1c(-c2nonc2N)nc2cncc(CNC3CCNCC3)c21
b = CNC(=O)C1[C@H]2O[C@@](C)([C@@H]1N)n1c3ccccc3c3c4c(c5c6ccccc6n2c5c31)C(=O)NC4 (stereo partly drawn)
c = COc1ccc(-n2ncc3cnc(Nc4cc(OC)c(OC)c(OCCCN5CCN(C)CC5)c4)nc32)cc1
List the 3 entries from lowest residual activity to highest residual activity value. Please, when replying, give the labels in the order that was requested. b, c, a
(b: 5%, c: 31%, a: 88%)
